Values were extracted from ChEMBL document CHEMBL1201862.

- Tested on: MCF7
- TEST_DETAILS: NCI tumour cell line growth inhibition, 48 h
Calls of active or inactive are those of the source. Cut-off read from the data, not from the text of the source: active = GI50 up to about 1.1 µM and inactive = higher.
Select the matching outcome among YES (active), NO (inactive)

The following compounds have reported results that may help.
COMPOUND	TARGET_OR_TEST_SYSTEM	CATEGORY_LABEL
CN(C)CC1CCC/C(=C\c2ccc(OC(=O)/C=C/c3ccc(Cl)c(Cl)c3)cc2)C1=O (centres undefined)	MCF7	YES
COc1ccc2[nH]c(C(=O)N3CC(CCl)c4ccc([N+](=O)[O-])cc43)cc2c1 (centres undefined)	MCF7	NO
COc1ccc(C2C=C(c3ccc4c(c3)OCO4)Oc3c2c(=O)oc2ccccc32)cc1OC (centres undefined)	MCF7	YES
COc1cc2c(cc1Cc1c(F)cccc1Cl)nc(-c1c(F)cccc1Cl)n2Cc1c(F)cccc1Cl	MCF7	NO

Query block: Can you look up the reported call for CCOC(=O)C(NC(=O)c1ccccc1)(Nc1ccc(S(=O)(=O)Nc2ccc(OC)nn2)cc1)C(F)(F)F (centres undefined) for me?
Result block: NO

Query block: Can you look up the reported call for O=P(O)(O)CN1CCNCCN(CP(=O)(O)O)CCNCC1 for me?
Result block: NO

Query block: Can you look up the reported call for CS(=O)(=O)Nc1ccc2c(c1)N(S(C)(=O)=O)CC2COS(C)(=O)=O (centres undefined) for me?
Result block: NO

Query block: Can you look up the reported call for Cc1ccc(NC(=O)/C(CC2Nc3c(ccc4c3C(=O)c3ccccc3C4=O)NC2O)=N/NC(C)(C)C)cc1 (centres undefined) for me?
Result block: NO

Query block: Can you look up the reported call for N#Cc1c(-c2ccc([N+](=O)[O-])cc2)c(C#N)c(=O)n(NS(=O)(=O)c2ccccc2)c1S for me?
Result block: NO

* * *

- System: NCI/ADR-RES
- TEST_DETAILS: NCI tumour cell line growth inhibition, 48 h
Calls of active or inactive are those of the source. Cut-off read from the data, not from the text of the source: active = GI50 up to about 1.1 µM and inactive = higher.
A collection of compounds and their measured GI50

COMPOUND	TARGET_OR_TEST_SYSTEM	RESULT
Oc1ccc(O)c(Cc2ccccc2)c1	NCI/ADR-RES	16.4 µM (inactive)
CC(C)Oc1c(C2(c3ccccc3)SCCCS2)c(=O)c1=O	NCI/ADR-RES	> 100 µM (inactive)
COc1ccc(/C=C/c2ccnc3ccccc23)cc1	NCI/ADR-RES	14.2 µM (inactive)
O=S(=O)(c1cccc(C(F)(F)F)c1)N1c2ccccc2-n2cccc2C1c1cccnc1 (stereo unspecified)	NCI/ADR-RES	5.19 µM (inactive)
CC(=O)c1c(O)cc(O)c(-c2c(C)cc(O)c3c2C(=O)c2cccc(O)c2C3=O)c1O	NCI/ADR-RES	15.8 µM (inactive)

Query block: Please state recorded GI50 (tested on NCI/ADR-RES) of COc1ccc2c(c1)[C@@H](NC(C)=O)CCc1cc(OC)c(OC)c(OC)c1-2
Result block: 0.0198 µM (active)

Query block: Please state recorded GI50 (tested on NCI/ADR-RES) of O=[N+]([O-])c1ccc2c(c1)c(S(=O)(=O)O)cc1nonc12
Result block: > 100 µM (inactive)

Query block: Please state recorded GI50 (tested on NCI/ADR-RES) of OC(CC(c1ccccc1)c1ccc(Cl)cc1)c1ccc(Cl)cc1 (stereo unspecified)
Result block: 33.5 µM (inactive)
